assay: Cmax in Sprague-Dawley rat at 20 mg/kg, iv; assay type: ADME, organism-based; set-up: dose 20 mg/kg, route intravenous; settings: in vivo
MEASURED QUANTITY: Cmax (ng/mL)

1) N#C[C@@H]1C[C@H](F)CN1C(=O)[C@@H](N)Cc1cscn1; 2960

----------
experiment: Half life in Sprague-Dawley rat at 20 mg/kg, po; type: ADME, organism-based; parameters: dose 20 mg/kg, route oral; details: in vivo
MEASURED QUANTITY: half-life (h)

1. N#C[C@@H]1C[C@H](F)CN1C(=O)[C@@H](N)Cc1cc2c(cc1Br)OCO2; 3.64

----------
experiment: Tmax in Sprague-Dawley rat at 5 mg/kg, iv; type: ADME, organism-based; design: dose 5 mg/kg, route intravenous; details: in vivo
MEASURED QUANTITY: Tmax (min)

1) N#C[C@@H]1C[C@H](F)CN1C(=O)[C@@H](N)Cc1cc2c(cc1Br)OCO2; 18

----------
assay: AUC (0 to t) in Sprague-Dawley rat at 20 mg/kg, po; assay type: ADME, organism-based; set-up: dose 20 mg/kg, route oral; details: plasma
MEASURED QUANTITY: AUC(0-t) (ng·h/mL)

1) N#C[C@@H]1C[C@H](F)CN1C(=O)[C@@H](N)Cc1cc2c(cc1Br)OCO2; 1290

----------
assay: Mean residence time in Sprague-Dawley rat at 20 mg/kg, po; assay type: ADME, organism-based; parameters: dose 20 mg/kg, route oral; conditions: in vivo
MEASURED QUANTITY: MRT (h)

1) N#C[C@@H]1C[C@H](F)CN1C(=O)[C@@H](N)Cc1cc2c(cc1Br)OCO2; 3.15

----------
assay: Mean residence time in Sprague-Dawley rat at 50 mg/kg, po; format: ADME, organism-based; design: dose 50 mg/kg, route oral; conditions: in vivo
MEASURED QUANTITY: MRT (h)

1. N#C[C@@H]1C[C@H](F)CN1C(=O)[C@@H](N)Cc1cscn1; 1.47

----------
test: Tmax in Sprague-Dawley rat at 20 mg/kg, iv; format: ADME, organism-based; parameters: dose 20 mg/kg, route intravenous; conditions: in vivo
MEASURED QUANTITY: Tmax (min)

1) N#C[C@@H]1C[C@H](F)CN1C(=O)[C@@H](N)Cc1cscn1; 18

----------
test: AUC (0 to infinity) in Sprague-Dawley rat at 5 mg/kg, iv; assay type: ADME, organism-based; design: time infinity, dose 5 mg/kg, route intravenous; details: plasma
MEASURED QUANTITY: AUC(0-inf) (ng·h/mL)

1) N#C[C@@H]1C[C@H](F)CN1C(=O)[C@@H](N)Cc1cc2c(cc1Br)OCO2; 1920

----------
test: Half life in Sprague-Dawley rat at 5 mg/kg, iv; type: ADME, organism-based; set-up: dose 5 mg/kg, route intravenous; conditions: in vivo
MEASURED QUANTITY: half-life (min)

1) N#C[C@@H]1C[C@H](F)CN1C(=O)[C@@H](N)Cc1cc2c(cc1Br)OCO2; 37.8

----------
assay: Mean residence time in Sprague-Dawley rat at 20 mg/kg, iv; format: ADME, organism-based; set-up: dose 20 mg/kg, route intravenous; details: in vivo
MEASURED QUANTITY: MRT (h)

1. N#C[C@@H]1C[C@H](F)CN1C(=O)[C@@H](N)Cc1cscn1; 1.48
